- System: Trypanosoma brucei
- EXPERIMENT: Trypanosoma brucei 72 hour study
- Type: functional, organism-based
- Parameters: scale not given: in the data most compounds retested in dose-response had high values
- CONDITION INFO: 30.3 µM; […]
About 960 (1.5%) of roughly 66,000 compounds showed an effect of 50% or more. The sample as a whole holds a higher share of strong results than the screen did.
Give YES when the value for Percent Effect is at least 20%. Give NO when it is less.

Does the molecule Cc1nccn1CCCn1cncc1-c1ccc2c(c1)CCC(C)N2C.Cl (stereo not given) have recorded Percent Effect that is 20% or more?
NO

Does the molecule Cc1nccn1CCCn1cncc1-c1ccc2c(c1)CC(C)N2C.Cl (stereo not given) have recorded Percent Effect that is 20% or more?
NO

Does the molecule O=C(O)C(F)(F)F.O=C(c1cscn1)N1CCCC2(CCN2Cc2cccc(F)c2)C1 (stereo not given) have recorded Percent Effect that is 20% or more?
YES

Does the molecule Cc1nn(C)c(C)c1CCn1cncc1-c1ccc2c(c1)CC(C)N2C.Cl (stereo not given) have recorded Percent Effect that is 20% or more?
YES

Does the molecule Cc1cc(C)n(CCCn2cncc2-c2ccc3c(c2)CC(C)N3C)n1.Cl (stereo not given) have recorded Percent Effect that is 20% or more?
YES

Sourced from ChEMBL document CHEMBL3988442
